Test: Nuclear factor erythroid 2-related factor 2/antioxidant responsive element (Nrf2/ARE) small molecule agonists: luciferase reporter gene qHTS assay in human keratinocytes (AID 1919969); also: nearly all actives have a fitted effect of over 35% in size
Details: KeratinoSens HaCaT ARE-luciferase, luminescence, 24 h; series mostly up to 92.4 µM
Results filed as inconclusive are left out. Activity calls are given as the source filed them. Calls follow the shape of the full dose curve.
Your reply should match one of these outcome classes. 1 = active, -1 = inactive

Input line: For Oc1ccc2c(c1)-c1ccccc1C2 , what call appears in the results of this test?
Output line: -1

Input line: For CC1(CN2CCC(n3c(=O)[nH]c4ccccc43)CC2)OCc2ccccc2-n2cccc21 (stereo not given) , what call appears in the results of this test?
Output line: -1

Input line: For CC(C)(O)c1ccc(C(C)(C)O)cc1 , what call appears in the results of this test?
Output line: -1

Ref: PubChem BioAssay (Tox21)
